Target: CaM (Bos taurus, UniProt P62157)
Construct: made in house; host or cells: E. coli BL21 (DE3)
Assay: Pull-down assay with immobilized protein and LSM libraries
Assay type: binding, bovine
Details: H14 library; 1:2 stoichiometry assumed; read-out: Surface mapping KD (apparent)
Procedure: Pull-down assays with immobilized test proteins and foldameric LSM libraries were carried out. Proteins were equilibrated with LSM probes, and equilibrium bound fractions (FB) were determined from the unbound fractions measured by HPLC-MS methods. Hits were corrected with background binding of the resin. […] MS data analysis. […] Using these processing setups, all raw data files were reprocessed together and analyzed. […]
Binarize Kd at 20 µM; below is label 1, at or above is label 0.

Problem: For "CC[C@H](C)[C@@H](CC(=O)N[C@H]1CCCC[C@@H]1C(N)=O)NC(=O)[C@H]1CCCC[C@@H]1NC(=O)[C@H]1CCCC[C@@H]1NC(=O)C[C@H](Cc1c[nH]c2ccccc12)NC(=O)[C@H]1CCCC[C@@H]1N" , is the recorded Kd below the cut-off of 20 µM?
Solution: label 1

Problem: Similarly, "CC(C)C[C@@H](CC(=O)N[C@H]1CCCC[C@@H]1C(=O)N[C@H]1CCCC[C@@H]1C(=O)N[C@H](CC(=O)N[C@H]1CCCC[C@@H]1C(N)=O)Cc1ccccc1)NC(=O)[C@H]1CCCC[C@@H]1N" ?
Solution: label 1

Problem: Same lookup for "N=C(N)NCCC[C@@H](CC(=O)N[C@H]1CCCC[C@@H]1C(N)=O)NC(=O)[C@H]1CCCC[C@@H]1NC(=O)[C@H]1CCCC[C@@H]1NC(=O)C[C@H](CCCNC(=N)N)NC(=O)[C@H]1CCCC[C@@H]1N" , please.
Solution: label 1

Problem: Continue with "CC(C)C[C@@H](CC(=O)N[C@H]1CCCC[C@@H]1C(N)=O)NC(=O)[C@H]1CCCC[C@@H]1NC(=O)[C@H]1CCCC[C@@H]1NC(=O)C[C@H](Cc1ccc(O)cc1)NC(=O)[C@H]1CCCC[C@@H]1N"
Solution: label 1

Problem: Ok, now "NC(=O)C[C@@H](CC(=O)N[C@H]1CCCC[C@@H]1C(=O)N[C@H]1CCCC[C@@H]1C(=O)N[C@@H](CCC(=O)O)CC(=O)N[C@H]1CCCC[C@@H]1C(N)=O)NC(=O)[C@H]1CCCC[C@@H]1N"
Solution: label 0

Problem: Again, but for "CC(C)C[C@@H](CC(=O)N[C@H]1CCCC[C@@H]1C(=O)N[C@H]1CCCC[C@@H]1C(=O)N[C@@H](CC(N)=O)CC(=O)N[C@H]1CCCC[C@@H]1C(N)=O)NC(=O)[C@H]1CCCC[C@@H]1N"
Solution: label 0

Problem: // next record "CC[C@H](C)[C@@H](CC(=O)N[C@H]1CCCC[C@@H]1C(N)=O)NC(=O)[C@H]1CCCC[C@@H]1NC(=O)[C@H]1CCCC[C@@H]1NC(=O)C[C@H](CC(C)C)NC(=O)[C@H]1CCCC[C@@H]1N"
Solution: label 1

Problem: Subsequent entry: "CC(C)C[C@@H](CC(=O)N[C@H]1CCCC[C@@H]1C(N)=O)NC(=O)[C@H]1CCCC[C@@H]1NC(=O)[C@H]1CCCC[C@@H]1NC(=O)C[C@@H](NC(=O)[C@H]1CCCC[C@@H]1N)[C@@H](C)O"
Solution: label 0

Problem: Try "NCCCC[C@@H](CC(=O)N[C@H]1CCCC[C@@H]1C(N)=O)NC(=O)[C@H]1CCCC[C@@H]1NC(=O)[C@H]1CCCC[C@@H]1NC(=O)C[C@H](Cc1c[nH]c2ccccc12)NC(=O)[C@H]1CCCC[C@@H]1N" next.
Solution: label 1

Reference source for all entries: paper PMC8162404
